- procedureDetails: Pharmacokinetic study in rats (plasma UPA by LC/MS/MS)
- Format: in vivo
- conditionDescription: female, OFA(SD), rat, po, 4 mg/kg, 4 mg UPA per kg, powder into the stomach, pooled plasma
attributeMeasured: AUC(0-inf) (ng·h/mL)

{"columns": ["compound", "recordedMeasurement"],
 "data": [
  ["CC(=O)O[C@]1(C(C)=O)CCC2C3CCC4=CC(=O)CCC4=C3[C@@H](c3ccc(N(C)C)cc3)C[C@@]21C (stereo partly shown) [UPA micronized alone]", 1380]
]}

---

- procedureDetails: Pharmacokinetic study in rats (plasma UPA by LC/MS/MS)
- Type: in vivo
- conditionDescription: female, OFA(SD), rat, po, 4 mg/kg, 4 mg UPA per kg, powder into the stomach, pooled plasma

{"columns": ["compound", "AUC(0-t), ng·h/mL"],
 "data": [
  ["CC(=O)O[C@]1(C(C)=O)CCC2C3CCC4=CC(=O)CCC4=C3[C@@H](c3ccc(N(C)C)cc3)C[C@@]21C (stereo partly shown) [UPA micronized alone]", 1340]
]}

---

- procedureDetails: Pharmacokinetic study in rats (plasma UPA by LC/MS/MS)
- Type: in vivo
- conditionDescription: female, OFA(SD), rat, po, 4 mg/kg, 4 mg UPA per kg, powder into the stomach, pooled plasma

{"columns": ["compound", "readoutUnits", "Cmax"],
 "data": [
  ["CC(=O)O[C@]1(C(C)=O)CCC2C3CCC4=CC(=O)CCC4=C3[C@@H](c3ccc(N(C)C)cc3)C[C@@]21C (stereo partly shown)", "ng/mL", 447]
]}

---

- procedureDetails: Pharmacokinetic study in rats (plasma UPA by LC/MS/MS)
- Assay type: in vivo
- conditionDescription: female, OFA(SD), rat, oral, 4 mg UPA per kg, powder into the stomach, pooled plasma
- Description: The pharmacokinetic study was carried out on female OFA(SD) rats weighing between 0.206 and 0.251 kg. The animals were deprived of food for 16 hours before the administration of the samples. The animals were placed in cages, the temperature of which was maintained between 20 and 25° C.; the day/night cycles were 12 h each (6 am-6 pm) and the air was conditioned using a ventilation system. […]

{"columns": ["molecule", "Tmax [h]"],
 "data": [
  ["CC(=O)O[C@]1(C(C)=O)CCC2C3CCC4=CC(=O)CCC4=C3[C@@H](c3ccc(N(C)C)cc3)C[C@@]21C (stereo partly shown)", 1.25]
]}
